- target-or-test-system: Albumin (Bos taurus) (UniProt P02769)
- Sequence (P02769 whole entry, looked up): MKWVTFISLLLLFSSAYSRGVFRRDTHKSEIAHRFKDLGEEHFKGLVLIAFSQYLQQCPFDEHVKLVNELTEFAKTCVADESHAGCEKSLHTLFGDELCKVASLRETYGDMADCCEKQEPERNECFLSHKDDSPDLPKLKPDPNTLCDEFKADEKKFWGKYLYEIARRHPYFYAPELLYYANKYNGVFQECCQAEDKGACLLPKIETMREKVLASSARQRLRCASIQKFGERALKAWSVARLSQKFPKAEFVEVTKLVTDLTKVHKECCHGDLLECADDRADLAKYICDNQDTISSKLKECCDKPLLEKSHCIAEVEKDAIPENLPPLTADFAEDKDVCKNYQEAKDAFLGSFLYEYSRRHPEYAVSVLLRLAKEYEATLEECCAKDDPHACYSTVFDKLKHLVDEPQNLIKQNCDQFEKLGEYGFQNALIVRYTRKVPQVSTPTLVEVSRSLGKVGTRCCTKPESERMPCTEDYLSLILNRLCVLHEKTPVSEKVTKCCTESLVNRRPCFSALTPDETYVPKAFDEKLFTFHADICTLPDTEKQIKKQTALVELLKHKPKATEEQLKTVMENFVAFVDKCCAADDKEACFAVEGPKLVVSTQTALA
- experimental-details: bovine serum albumin binders on microarray, profiling panel, artefact control for SMM control protein annotation, biochemical, small-molecule microarray, Alexa647 label, 635/667 nm fluorescence (AID 1118);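 further: score merges 667 nm emission intensity and signal-to-noise per printed compound spot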
- test-parameters: BSA-A647 binding, fluorescence 635 nm, higher = more signal
Labels assigned by composite z-score range: Low = under 0.4, Mid = from 0.4 up to 0.7, High = 0.7 and over

Record excerpt, results attached:
compound="CC1CC/C=C\\[C@H]2OC34C=CCN(C(C)(C)C)C(=O)[C@H]3N(CCCCCCO)C(=O)[C@@H]4C2C(=O)O1 (some centres undefined)" label=Low
compound="CCN(CC)c1ccc(N2CC=CC34O[C@@H]5/C=C\\CCCOC(=O)C5[C@H]3C(=O)N(CCO)[C@@H]4C2=O)cc1 (some centres undefined)" label=Low
compound=COCCOC(=O)N1C(=O)[C@@]2(c3ccccc31)[C@H](c1ccccc1OCCO)N1[C@H](c3ccccc3)[C@H](c3ccccc3)OC(=O)[C@H]1[C@@H]2C(=O)Nc1nc2ccccc2s1 label=Mid
compound=[N-]=[N+]=NCc1ccccc1C[C@]1(C(=O)N2CCOCC2)N=C(c2ccc(OCCCO)cc2)O[C@H]1c1ccccc1N=[N+]=[N-] label=High
compound=COC(=O)[C@@]1(Cc2ccc(F)cc2)[C@@H]2[C@@H](CC(=O)[C@H]2CC(=O)C(=O)N(C)C)CN1C(=O)c1ccccc1 label=High

Task item: Kindly identify the class of CCCC[C@H]1OB(O)C[C@H]2C1=C(COc1ccccc1)C[C@H]1C(=O)N(C)C(=O)[C@H]12 .
Reply: Low

Task item: Kindly identify the class of COC(=O)c1c(CC[C@@H](CO)NC(=O)N2CCC[C@H]2Cn2cc(-c3ccccn3)nn2)oc(C(C)=O)c1C(=O)OC .
Reply: Mid

Task item: Kindly identify the class of O=C1OCCC/C=C\[C@H]2OC34C=CCN(Cn5nnc6ccccc65)C(=O)[C@H]3N(CCCCCCO)C(=O)[C@@H]4C12 (some centres undefined) .
Reply: Low

Task item: Kindly identify the class of COC(=O)C=C(CC(O)c1cccc(Cl)c1)OC (centres undefined) .
Reply: High

====

- experimental-details: E. coli DRC41 culture turbidity changes, primary screen, E. coli filamentation inducer project, strain DRC41, OD650, 48 h (AID 1152);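 further: E. coli MC1000 strain DRC41 lacking acrAB efflux pump and sulA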
- test-parameters: E. coli DRC41 (acrAB sulA), higher = more signal, called active from +8 up or from −8 down
The source made the active and inactive calls.
measured-metric: z-score

Task item: Identify measured z-score associated with C=CCNC(=O)[C@H]1[C@@H]2C(=O)O[C@@H](c3ccccc3)[C@@H](c3ccccc3)N2[C@@H](c2ccc(OCCO)cc2)[C@]12C(=O)Nc1ccc(C#CC3=CCCCC3)cc12
Reply: 0.951 (inactive)

Task item: Identify measured z-score associated with C=CCNC(=O)[C@@H]1[C@H]2C(=O)O[C@H](c3ccccc3)[C@H](c3ccccc3)N2[C@H](c2ccccc2OCCO)[C@@]12C(=O)N(C(=O)OCCOC)c1ccc(C#CCNC(N)=O)cc12
Reply: -0.302 (inactive)

====

// values below are reported z-score
- experimental-details: P. aeruginosa biofilm formation inhibitors, primary screen, strain PAO1, LB-PBS medium, absorbance 600 nm (AID 1176); further: test concentration not given here
- test-parameters: P. aeruginosa PAO1 growth/biofilm, A600, 12 h; higher = more signal
Lab note: write the figure by itself, no unit.

compound=C=C(COC)/C(=C/C[C@@H](OC(C)=O)c1ccc(OCCO)cc1)c1cc(C(=O)OC)ccc1OC test_value=0.862

Task item: Identify measured z-score associated with CC(C)C[C@@H]1NC(=O)[C@H]2C[C@@H](C(=O)NCCCCCCN)[C@@H](c3ccc(O)cc3)N2C1=O
Reply: -0.226

Task item: Identify measured z-score associated with OC([C@@H]1CC(c2ccccc2)=NO1)[C@H]1CC(c2ccccc2)=NO1 (some centres not stated)
Reply: -0.0704

Task item: Identify measured z-score associated with COC(=O)c1c(CC[C@@H](CO)NC(=O)N2CCC[C@H]2Cn2cc(-c3ccccn3)nn2)oc(C(C)=O)c1C(=O)OC
Reply: -0.252

Task item: Identify measured z-score associated with O=C1c2ccccc2[C@@]2(Cc3ccccc3N(CC(F)(F)F)C2=O)[C@H](c2ccc(CO)cc2)N1Cc1ccccc1Cl
Reply: 0.848

Task item: Identify measured z-score associated with CCOC(=O)C[C@H]1[C@H](OC(=O)Cc2ccc3c(c2)OCO3)[C@@H](NC(=O)c2ccc3ccccc3c2)c2cc(OCCCO)ccc2N1C(=O)c1ccccc1
Reply: 0.69

Task item: Identify measured z-score associated with NC(=O)[C@@H]1[C@H]2C(=O)O[C@H](c3ccccc3)[C@H](c3ccccc3)N2[C@H](c2ccc(O)cc2)[C@@]12C(=O)Nc1ccc(C#CC3(O)CCCCCC3)cc12
Reply: 0.654

Task item: Identify measured z-score associated with C=C(CCCC)/C(=C/C[C@@H](OC(C)=O)c1ccccc1OCCO)c1cnc2ccccc2c1
Reply: 0.191
